# Tested on: p-cymene A-neuron OSN class
# assay_name: net action potential response of A-neuron (blank-subtracted) (spikes/s (Hz)); higher = stronger excitation
# measurement_parameters: 10 µg on filter paper; neuron: A neuron (large spike amplitude)
Would you kindly list net action potential response for each of these molecules?
Answers are plain numbers.

Worked set:
>  <molecule>
CC(=O)OC/C=C(\C)CCC=C(C)C [Geranyl acetate]

>  <number>
1

$$$$
>  <molecule>
C=CC(C)(C)O

>  <number>
1

$$$$
>  <molecule>
CC1=CCC(C(C)C)=CC1

>  <number>
117

$$$$
>  <molecule>
Cc1ccc(C(C)C)cc1

>  <number>
146

$$$$
>  <molecule>
C=CC(=C)CCC=C(C)C

>  <number>
3.33

$$$$

List net action potential response for every entry below, keeping the order given.
1. C=Cc1ccccc1
2. C=C1CCC2CC1C2(C)C (stereo not drawn) [(-)-β-Pinene]

1: 18.7; 2: 0.667

List net action potential response for every entry below, keeping the order given.
1. OCCc1ccccc1
2. CC12CCC(CC1=O)C2(C)C (racemic) [(±)-Camphor]
3. CC1=CC(=O)[C@@H]2C[C@H]1C2(C)C [(-)-Verbenone]
4. CC(C)[C@@]12CC[C@@](C)(O)[C@@H]1C2 [(+)-trans-4-Thujanol]
5. CC1=CCC2CC1C2(C)C (stereo not drawn) [(+)-α-Pinene]
6. CC(=O)OCCC(C)C [3-Methylbutyl acetate]
7. CC/C=C/CCO

1: 2.67; 2: 6.67; 3: -0.667; 4: 37.3; 5: 2.67; 6: 6.67; 7: 0.667
